system_tested: ATP-binding cassette sub-family C member 4 (Homo sapiens, UniProt O15439)
Sequence (O15439 whole entry): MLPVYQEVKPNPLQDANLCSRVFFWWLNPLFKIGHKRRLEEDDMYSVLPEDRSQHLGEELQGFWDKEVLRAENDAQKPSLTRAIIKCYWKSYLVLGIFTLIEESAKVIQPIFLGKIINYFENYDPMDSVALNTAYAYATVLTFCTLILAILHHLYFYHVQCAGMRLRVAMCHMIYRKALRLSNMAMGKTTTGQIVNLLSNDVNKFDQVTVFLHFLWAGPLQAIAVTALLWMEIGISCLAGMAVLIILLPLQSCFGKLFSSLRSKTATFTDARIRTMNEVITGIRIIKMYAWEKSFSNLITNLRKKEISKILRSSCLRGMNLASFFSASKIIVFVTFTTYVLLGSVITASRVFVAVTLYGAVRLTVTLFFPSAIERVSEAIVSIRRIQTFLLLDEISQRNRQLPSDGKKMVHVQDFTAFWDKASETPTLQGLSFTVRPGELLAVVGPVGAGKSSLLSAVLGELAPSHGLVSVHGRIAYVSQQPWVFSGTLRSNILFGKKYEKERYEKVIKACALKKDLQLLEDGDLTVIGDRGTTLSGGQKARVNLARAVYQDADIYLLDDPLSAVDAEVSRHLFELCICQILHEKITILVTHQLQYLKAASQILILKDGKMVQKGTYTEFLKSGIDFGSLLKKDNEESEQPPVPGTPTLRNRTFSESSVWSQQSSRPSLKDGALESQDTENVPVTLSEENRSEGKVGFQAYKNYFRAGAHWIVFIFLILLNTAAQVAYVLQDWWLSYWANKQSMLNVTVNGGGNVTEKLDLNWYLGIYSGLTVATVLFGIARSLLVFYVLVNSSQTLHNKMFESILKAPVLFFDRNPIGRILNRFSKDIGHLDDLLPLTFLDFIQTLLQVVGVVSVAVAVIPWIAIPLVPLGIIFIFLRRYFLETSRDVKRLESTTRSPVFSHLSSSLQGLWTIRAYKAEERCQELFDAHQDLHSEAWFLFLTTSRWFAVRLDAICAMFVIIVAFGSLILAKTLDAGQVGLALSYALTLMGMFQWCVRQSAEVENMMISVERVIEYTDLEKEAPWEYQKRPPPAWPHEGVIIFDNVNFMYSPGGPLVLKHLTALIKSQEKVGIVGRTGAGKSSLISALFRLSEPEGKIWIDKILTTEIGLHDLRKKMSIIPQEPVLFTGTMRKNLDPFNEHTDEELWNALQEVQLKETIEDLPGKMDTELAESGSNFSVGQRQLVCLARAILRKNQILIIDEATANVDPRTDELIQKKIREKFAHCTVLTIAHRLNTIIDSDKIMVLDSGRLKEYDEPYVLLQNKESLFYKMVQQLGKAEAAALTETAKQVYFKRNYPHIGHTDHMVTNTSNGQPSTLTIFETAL
assay_details: Inhibition of human MRP4 overexpressed in Sf9 cell membrane vesicles assessed as uptake of [3H]-estradiol-17beta-D-glucuronide in presence of ATP and GSH measured after 20 mins by membrane vesicle transport assay
pIC50: −log10 of the molar value.
readout_type: pIC50

See these solved cases before continuing.
O=C1CN=C(c2ccccc2)c2cc([N+](=O)[O-])ccc2N1 ... < 3.88
CN(CCOc1ccc(CC2SC(=O)NC2=O)cc1)c1ccccn1 (stereo not drawn) ... 4.68
NC(N)=Nc1nc(CSCCC(N)=NS(N)(=O)=O)cs1 ... < 3.88
COc1ccccc1N1CCN(CCCNc2cc(=O)n(C)c(=O)n2C)CC1 ... < 3.88
Cc1noc(NS(=O)(=O)c2ccc(N)cc2)c1C ... < 3.88
Cc1nnc(C(C)C)n1[C@@H]1C[C@H]2CC[C@@H](C1)N2CC[C@H](NC(=O)C1CCC(F)(F)CC1)c1ccccc1 ... < 3.88
C[C@H]1C[C@@H]2[C@H]([C@@H](O)C[C@@]3(C)[C@H]2CC[C@]3(O)C(=O)CO)[C@@]2(C)C=CC(=O)C=C12 ... 4.39

Name the reported pIC50 value associated with the compound C(=C\c1ccccc1)/CN1CCN(C(c2ccccc2)c2ccccc2)CC1
< 3.88
